Target: T1, human VPAC2 receptor (human, UniProt P41587 24-438)
T1 sequence (looked up): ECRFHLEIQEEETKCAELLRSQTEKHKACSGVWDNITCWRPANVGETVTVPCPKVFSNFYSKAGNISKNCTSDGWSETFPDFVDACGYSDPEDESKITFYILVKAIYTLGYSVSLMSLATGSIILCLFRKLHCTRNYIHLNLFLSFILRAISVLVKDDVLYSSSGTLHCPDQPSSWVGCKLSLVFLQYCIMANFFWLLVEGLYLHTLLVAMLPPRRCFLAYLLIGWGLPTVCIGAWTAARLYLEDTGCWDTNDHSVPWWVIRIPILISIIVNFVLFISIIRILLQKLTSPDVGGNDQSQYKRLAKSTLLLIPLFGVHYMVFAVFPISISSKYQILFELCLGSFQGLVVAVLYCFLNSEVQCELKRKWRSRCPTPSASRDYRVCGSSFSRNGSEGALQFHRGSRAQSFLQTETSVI
Experiment: cell-based or functional assay
Where no end group is shown, it is not given here. [ ]: non-standard residue; d: D form. The star is where a group is joined. Hexanoyl = CCCCCC(=O)*; Aib = CC(C)(N)C(=O)O
Hi! Could you tag entries with EC50 cAMP, Alpha Screen below 0.4 nM as class 1, and those at or above as class 0? Much appreciated.

Q: A record lists HSDAVFTDNYTRLXXQVAAXKYLQSIKNKRYGGPSSGAPPPS (N-terminal hexanoyl (C6); hR at 14; Aib at 15, 20) [P316] . Is its EC50 cAMP, Alpha Screen below 0.4 nM?
A: class 1

Q: A record lists Hexanoyl-HSDAVFTDNYTRLRFQVAAKKYLQSIKNKRYGGPSSGAPPPS [P180] . Is its EC50 cAMP, Alpha Screen below 0.4 nM?
A: class 0

Q: A record lists Hexanoyl-HSDAVFTDNYTRLRAQLAAQKYLQSIKNKRYGGPSSGAPPPS [P142] . Is its EC50 cAMP, Alpha Screen below 0.4 nM?
A: class 1

Q: A record lists HSDAVFTDNYTRLRKQVAAKKYLQSIKKGGPSSGAPPPS [P85] . Is its EC50 cAMP, Alpha Screen below 0.4 nM?
A: class 0

Q: A record lists HSDAVFTDNYTRLXXQVAAXKYLQSIKNKRYGGPSSGAPPPS (N-terminal hexanoyl (C6); Cit at 14; Aib at 15, 20) [P320] . Is its EC50 cAMP, Alpha Screen below 0.4 nM?
A: class 0

Q: A record lists Hexanoyl-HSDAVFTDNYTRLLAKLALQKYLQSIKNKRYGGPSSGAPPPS (also called VPAC2-P119) [P119] . Is its EC50 cAMP, Alpha Screen below 0.4 nM?
A: class 0

Q: A record lists Hexanoyl-HSDAVFTDNYTRLLAKLAAQKYLQSIKNKRYGGPSSGAPPPS [P197] . Is its EC50 cAMP, Alpha Screen below 0.4 nM?
A: class 1

Q: A record lists IHSDAVFTDNYTRLRKQVAAKKYLQSIKNKRYGGPSSGAPPPS (N-terminal isoleucine added (I-)) [P105] . Is its EC50 cAMP, Alpha Screen below 0.4 nM?
A: class 0

Q: A record lists Hexanoyl-HSDAVFTDNYTRLRKQVAALKYLQSIKNKRYGGPSSGAPPPS [P151] . Is its EC50 cAMP, Alpha Screen below 0.4 nM?
A: class 1

Q: A record lists HSDAVFTDNYTRLRXQVAAXKYLQSIXXGGPSSGAPPPS (N-terminal hexanoyl (C6); Aib at 15, 20; Orn at 27, 28) [P352] . Is its EC50 cAMP, Alpha Screen below 0.4 nM?
A: class 1

Q: A record lists Hexanoyl-HSDAVFTKNYTRLRKQVAAKKYLQSIKNKRYGGPSSGAPPPS [P160] . Is its EC50 cAMP, Alpha Screen below 0.4 nM?
A: class 0

Q: A record lists Hexanoyl-HSDA[Aib]FTDNYTRLRKQVAAKKYLQSIKNKRYGGPSSGAPPPS (ends and bridges not checked) [P212] . Is its EC50 cAMP, Alpha Screen below 0.4 nM?
A: class 1
